- Assay overview: gradient 5% acetonitrile 3 min, to 50% in 2 min, to 85% in 15 min, held 3 min, 100 µL/min
- Test context: column: Zorbax Extend-C18 2.1 x 50 mm; eluents: water / acetonitrile, 0.1% formic acid
Observed property: RP-LC retention time (s)

Solved cases (5 shown):
CCCn1c(=O)c(C)nc2cc(-c3noc(-c4cccs4)n3)ccc21 = 1120
CC1=NS(=O)(=O)N(Cc2ccccc2)C=C1C(=O)OCc1ccc(C)cc1C = 1220
CCN(CC)c1ccc(NC(=O)CSc2cc(N3CCCC3)ncn2)c(C)c1 = 600
Cc1ccc(C)c(NC(=O)N(C)CCc2noc(COc3ccccc3)n2)c1 = 934
O=C1Nc2ccccc2OC1C(=O)N1CCN(c2ccc(Cl)cc2)CC1 (centres undefined) = 889

(P) O=C(CSCc1nc2cccnc2n1C1CCCCC1)NCCc1ccco1
(Q) CCN1CCN(c2cc(C)c3cc(NC(=S)NCc4cc(OC)ccc4OC)ccc3n2)CC1
Query: Identify the item whose RP-LC retention time is the smaller number: P or Q State your choice using its label.
Result: Q

====

- Assay overview: gradient 5% acetonitrile 3 min, to 50% in 2 min, to 85% in 15 min, held 3 min, 100 µL/min
- Test context: column: Zorbax Extend-C18 2.1 x 50 mm; eluents: water / acetonitrile, 0.1% formic acid
Observed property: RP-LC retention time (s)

Below, 6 compounds whose answers are already recorded.
CCOc1ncccc1CNS(=O)(=O)c1cccnc1 = 661
Cc1ccc(S(=O)(=O)N2C(=O)CCC2C(=O)Nc2ccc(C)c(C)c2)cc1 (centres undefined) = 973
O=C(NC1CCCC1)N1CCN(c2nc3cccnc3n(Cc3ccccc3)c2=O)CC1 = 1030
CCC(CC)C(=O)N1C[C@H](c2nc(-c3ccncc3)no2)[C@@H](C)C1 = 793
COC(=O)C1=CN(C2CC2)c2cc(N3CCN(C(C)C)CC3)c(F)cc2S1(=O)=O = 740
CCN(CC)c1nc(C(=O)NCCN2CCOCC2)nc2nc(C)cc(C)c12 = 558

(a) Cn1nc(-c2nc(C3CC3)no2)c2c1CCN(C(=O)c1ccc(C(C)(C)C)cc1)C2
(b) Cc1nn(-c2ccccc2)c2c1nc(CCC(=O)N1CCN(c3ccccn3)CC1)c(=O)n2C
(c) COc1ccc(OCC(=O)Nc2ccc3c(c2)N(C(=O)C(C)C)CCC3)cc1
Query: Ascending sort, RP-LC retention time. Return value: ordered labels per request.
Result: b, c, a
(b: 601 s, c: 897 s, a: 1290 s)

====

- Assay overview: gradient 5% acetonitrile 3 min, to 50% in 2 min, to 85% in 15 min, held 3 min, 100 µL/min
- Test context: column: Zorbax Extend-C18 2.1 x 50 mm; eluents: water / acetonitrile, 0.1% formic acid
Observed property: RP-LC retention time (s)

Record excerpt, results attached:
COCCO[C@H]1C(=O)N(C2CCN(S(=O)(=O)C(C)C)CC2)[C@H]1c1ccncc1 = 572
COc1ccc(NC(=O)Cn2cccc2-c2nnc(C3CCC3)o2)cc1Cl = 951
Cn1c(=O)c2c(ncn2CC(=O)Nc2nccs2)n(C)c1=O = 576
CCNC(=O)c1ccc(-c2nc3cc(NS(=O)(=O)c4ccc(C(C)C)cc4)ccc3n2C)cc1 = 744
O=C(NCCCN1CCN(c2ccccc2)CC1)c1ccc(F)cc1F = 590

(A) O=C(Nc1nccs1)C1CCCN(S(=O)(=O)c2c[nH]c(C(=O)N3CCCC3)c2)C1 (centres undefined)
(B) CCOc1ccc(Oc2cc3c(cc2NC(=O)COc2ccc(C)cc2)n(C)c(=O)c(=O)n3C)cc1
Query: Looking at A and B , which one comes out lower in RP-LC retention time terms? Answer by quoting the chosen item's label.
Result: A
(A: 688 s, B: 1030 s)

====

- Assay overview: gradient 5% acetonitrile 3 min, to 50% in 2 min, to 85% in 15 min, held 3 min, 100 µL/min
- Test context: column: Zorbax Extend-C18 2.1 x 50 mm; eluents: water / acetonitrile, 0.1% formic acid
Observed property: RP-LC retention time (s)

CC(=O)N1c2ccccc2CC1c1nc(C(C)C)no1 (stereo unspecified) = 841
O=C(NCC1CCOCC1)Nc1ccccc1Cl = 741
Cc1ccc(N2CC(c3noc(-c4ccc5c(c4)OCO5)n3)CC2=O)cc1 (stereo unspecified) = 957
CN(C)S(=O)(=O)c1ccc(C(=O)N2CCC3(CC2)OCCS3)cc1 = 724
CC(=O)Nc1ccc(C2(C(=O)NCc3cccs3)CCC2)cc1 = 710
CCCn1ccc2sc(C)c(C(=O)NCc3ccccc3OC)c2c1=O = 896

====

- Assay overview: gradient 5% acetonitrile 3 min, to 50% in 2 min, to 85% in 15 min, held 3 min, 100 µL/min
- Test context: column: Zorbax Extend-C18 2.1 x 50 mm; eluents: water / acetonitrile, 0.1% formic acid
Observed property: RP-LC retention time (s)

Solved entries (count: 5):
COC(=O)c1cc2c(=O)n(Cc3ccco3)ccc2nc1C = 747
CCCOc1ccc(CNC(=O)c2cnc(OC)nc2)cc1 = 803
CCc1ccc(Oc2cc(N3CCC(C(=O)NCCc4ccccc4)CC3)ncn2)cc1 = 998
COc1nn(C)cc1C(=O)Nc1cc(C(F)(F)F)ccc1Cl = 980
Cc1ccc(NS(=O)(=O)c2cc(-c3[nH]ncc3C(=O)N3CCCCC3)oc2C)c(F)c1 = 806

(I) COc1ccc(-c2ccnn2-c2ccc(SCc3ccc(F)cc3)nn2)cc1
(II) O=C(NCc1cc(F)cc(F)c1)c1c(O)c2cccnc2n(-c2cccc(F)c2)c1=O
Query: Larger number for RP-LC retention time: I , or II ? Record your answer as the label of the chosen record.
Result: II

(I) Cc1ccc(CNC(=O)C2CCCN(c3nc4ncccc4n4cccc34)C2)cc1 (stereo not given)
(II) CCCNc1cc(C)nc2nc(-c3ccc(C(C)(C)C)cc3)nn12
Query: Lowest RP-LC retention time? choose I or II Reply briefly: the label of your chosen item.
Result: I

====

- Assay overview: gradient 5% acetonitrile 3 min, to 50% in 2 min, to 85% in 15 min, held 3 min, 100 µL/min
- Test context: column: Zorbax Extend-C18 2.1 x 50 mm; eluents: water / acetonitrile, 0.1% formic acid
Observed property: RP-LC retention time (s)

(1) O=C(Nc1ccc(-c2nc3ccccc3[nH]2)cc1)c1ccccc1[N+](=O)[O-]
(2) COc1ccc(OC)c(NS(=O)(=O)c2cc3c(s2)CCN(C(=O)C2CCC2)C3)c1
Query: // which entry has the larger RP-LC retention time value, 1 or 2 ? Field: selected label. Fill in the label of the entry you choose.
Result: 2
(2: 866 s, 1: 574 s)

====

- Assay overview: gradient 5% acetonitrile 3 min, to 50% in 2 min, to 85% in 15 min, held 3 min, 100 µL/min
- Test context: column: Zorbax Extend-C18 2.1 x 50 mm; eluents: water / acetonitrile, 0.1% formic acid
Observed property: RP-LC retention time (s)

These solved cases illustrate the format of a correct answer.
CCOc1ccc(-c2noc(Cn3c(=O)n(CC4CCCO4)c(=O)c4ccccc43)n2)cc1OC (centres undefined) = 957
O=C1NCCCn2cc(S(=O)(=O)Nc3ccc(Cl)cc3F)cc21 = 678
CCOc1ccc(NC(=O)Cn2cccc2-c2nnc(-c3ccccc3)o2)cc1 = 990
COc1ccc(OC)c(NC(=O)C(=O)c2c(C)n(C)c3ccccc23)c1 = 990
CCN(Cc1ccccc1)C(=O)c1c(C)sc2ccn(CC)c(=O)c12 = 754
CCOc1ccccc1NC(=O)C1CCN(c2cncnc2N2CCCCC2)CC1 = 742
O=S(=O)(c1ccc(F)cc1)N1CCC2(CC1)NCCN=C2NCc1cccc(F)c1 = 691
CCN(C(=O)c1ccccc1Cl)c1nc(-c2ccccc2)cs1 = 1310
CC(=O)c1ccc(NC(=O)c2cnn(-c3ccc(Br)cc3)c2)cc1 = 948
CCN(CC)c1cc2c(cc1NC(=O)COc1ccc(Cl)cc1)n(C)c(=O)c(=O)n2C = 965

(1) O=C(NCCCN1CCC(Cc2ccccc2)CC1)C1CCCN(S(=O)(=O)N2CCOCC2)C1 (centres undefined)
(2) Cc1sc(NC(=O)Cc2csc(-c3ccccc3)n2)nc1-c1ccc(Br)cc1
Query: Could you point out whether the larger RP-LC retention time belongs to 1 or to 2 ? Pick one and reply with its label.
Result: 2

====

- Assay overview: gradient 5% acetonitrile 3 min, to 50% in 2 min, to 85% in 15 min, held 3 min, 100 µL/min
- Test context: column: Zorbax Extend-C18 2.1 x 50 mm; eluents: water / acetonitrile, 0.1% formic acid
Observed property: RP-LC retention time (s)

Cc1c(CNCC2CCCO2)c(C(=O)O)c(C)n1Cc1cccc(Cl)c1 (centres undefined) = 717
CC1=C(c2ccc(F)cc2)S(=O)(=O)N=C1N1CCCN(C(=O)CC2CCCC2)CC1 = 883
COC(=O)c1ccc(NC(=O)C2CCCN(S(=O)(=O)c3cc(-c4noc(C)n4)cs3)C2)cc1 (centres undefined) = 984
CCCS(=O)(=O)N1CCC(Cc2nncn2-c2ccccc2)CC1 = 713
O=c1ccn(-c2ccccc2)nc1-c1nc(-c2ccc3c(c2)OCO3)no1 = 835
O=C(CSc1nnc(NC(=O)C2(c3cccs3)CCCC2)s1)c1ccccc1 = 1050
O=C(CN1C(=O)CCCc2cc(S(=O)(=O)N3CCCC3)ccc21)Nc1ccccc1 = 803
COc1ccc(C2Cn3cnc(-c4nc(-c5ccc(OC)cc5OC)no4)c3CO2)cc1 (centres undefined) = 912
CSc1nnc(C)c(=O)n1COC(=O)c1cc(C(F)(F)F)cc(C(F)(F)F)c1 = 932
